Taken from patent US11319299B2.

# testTarget: WDR5 (Homo sapiens (Human))
# methodDescription: Surface Plasmon Resonance (SPR) assay, KD and residence time
# Type: binding
# conditionsUsed: surface plasmon resonance (SPR); read-out: WDR5 binding affinity (KD)
metricName: log10(Kd) (log10 of the value in nM)
log10 Kd, nM

Query: Fill in: log10(Kd) of CC1CN(c2cc(F)c(-c3cnc(N4CCN(C(C)(C)C)CC4)nc3)cc2NC(=O)c2ccc(F)cc2C(F)(F)F)CCN1C (stereo in doubt) [Example 557] is ___
Reply: 0.04

Query: Fill in: log10(Kd) of C[C@@H]1CN(c2cc(F)c(-c3cc(C(N)=O)c(F)cc3F)cc2NC(=O)c2c[nH]c(=O)cc2C(F)(F)F)C[C@H](C)N1C [Example 632] is ___
Reply: 1.06

Query: Fill in: log10(Kd) of C[C@@H]1CN(c2cc(F)c(-c3ccc(C(=O)NC4CCC(F)(F)CC4)c(F)c3)cc2NC(=O)c2c[nH]c(=O)cc2C(F)(F)F)C[C@H](C)N1C [Example 734] is ___
Reply: 0.62

Query: Fill in: log10(Kd) of C[C@@H]1CN(c2cc(F)c(C3=CCN(C(=O)C4CCCCC4)CC3)cc2NC(=O)c2c[nH]c(=O)cc2C(F)(F)F)C[C@H](C)N1C [Example 569] is ___
Reply: 0.30

Query: Fill in: log10(Kd) of CNC(=O)c1ccc(-c2cc(NC(=O)c3c[nH]c(=O)cc3C(F)F)c(N3CCN(C)C(C)C3)cc2F)cc1F (stereo in doubt) [Example 597] is ___
Reply: -0.15

Query: Fill in: log10(Kd) of C[C@@H]1CN(c2ccc(-c3cc(NC(=O)c4cn(C)c(=O)cc4C(F)F)c(N4CCN(C)[C@@H](C)C4)cc3F)cn2)CCO1 [Example 516] is ___
Reply: 0.60

Query: Fill in: log10(Kd) of CC1CN(c2cc(F)c(-c3cnc(N4CCNCC4)nc3)cc2NC(=O)c2cn(C)c(=O)cc2C(F)(F)F)CCN1C (stereo in doubt) [Example 464] is ___
Reply: 0.34

Query: Fill in: log10(Kd) of CC1CN(c2cc(F)c(C3=CCN(c4ccnc(C#N)n4)CC3)cc2NC(=O)c2c[nH]c(=O)cc2C(F)F)CCN1C (stereo in doubt) [Example 708] is ___
Reply: -0.24

Query: Fill in: log10(Kd) of C[C@@H]1CN(c2cc(F)c(-c3cnc(N4CCO[C@@H](C)C4)nc3)cc2NC(=O)c2cn(C)c(=O)cc2C(F)(F)F)C[C@H](C)N1C (racemic) [Example 451] is ___
Reply: 0.24

Query: Fill in: log10(Kd) of C[C@@H]1CN(c2cc(F)c(-c3ccc(C(=O)NC(C)(C)CC(C)(C)C)c(F)c3F)cc2NC(=O)c2c[nH]c(=O)cc2C(F)(F)F)C[C@H](C)N1C [Example 669] is ___
Reply: 0.99

Query: Fill in: log10(Kd) of C[C@@H]1CN(c2cc(F)c(C3=CCN(C(=O)OC4(C)COC4)C3)cc2NC(=O)c2c[nH]c(=O)cc2C(F)(F)F)C[C@H](C)N1C [Example 490] is ___
Reply: 0.51

Query: Fill in: log10(Kd) of CC(C)N1CCN(c2ncc(-c3cc(NC(=O)c4ccc(F)cc4C(F)(F)F)c(N4C[C@@H](C)N(C)[C@@H](C)C4)cc3F)cn2)CC1 [Example 466] is ___
Reply: 0.36

###

Record form. Attribute: pKd. Fill in for each entry.
# testTarget: WDR5 (Homo sapiens (Human), UniProt P61964)
# methodDescription: Surface Plasmon Resonance (SPR) assay, KD and residence time
# Assay type: binding
# conditionsUsed: surface plasmon resonance (SPR); read-out: WDR5 binding affinity (KD)
Formally, pKd is defined as -log10 of the concentration c, with c in mol/L.

Query: Fill in: pKd of "COc1cc(N2CC=C(c3cc(NC(=O)c4c[nH]c(=O)cc4C(F)(F)F)c(N4C[C@@H](C)N(C)[C@@H](C)C4)cc3F)C2)ncn1" is ___
Reply: 8.70

Query: Fill in: pKd of "C[C@@H]1CN(c2cc(F)c(-c3ccnc(NC4CCCCC4)n3)cc2NC(=O)c2c[nH]c(=O)cc2C(F)(F)F)C[C@H](C)N1C" is ___
Reply: 9.03

Query: Fill in: pKd of "C[C@@H]1CN(c2ncc(-c3cc(NC(=O)c4ccc(F)cc4C(F)(F)F)c(N4C[C@@H](C)N(C)[C@@H](C)C4)cc3F)cn2)C[C@H](C)O1" is ___
Reply: 9.19

Query: Fill in: pKd of "C[C@H]1CN(c2cc(F)c(C3=CCN(C(=O)OC4CC(F)(F)C4)C3)cc2NC(=O)c2c[nH]c(=O)cc2C(F)F)CCN1C" is ___
Reply: 8.64

Query: Fill in: pKd of "C[C@@H]1CN(c2cc(F)c(-c3ccc4ncsc4c3)cc2NC(=O)c2c[nH]c(=O)cc2C(F)(F)F)C[C@H](C)N1C" is ___
Reply: 8.53

Query: Fill in: pKd of "C[C@@H]1CN(c2cc(F)c(-c3csc(C(=O)NCC4CC4)n3)cc2NC(=O)c2cn(C)c(=O)cc2C(F)(F)F)C[C@H](C)N1C" is ___
Reply: 8.34

###

# testTarget: WDR5 (Homo sapiens (Human))
# methodDescription: Surface Plasmon Resonance (SPR) assay, KD and residence time
# Format: binding
# conditionsUsed: surface plasmon resonance (SPR) assay; read-out: WDR5 binding affinity (KD)
metricName: pKd
Formally, pKd is defined as -log10 of the concentration c, with c in mol/L.

Query: Fill in: pKd of "C[C@@H]1CN(c2cc(F)c(-c3cnc(N4CCOCC4)nc3)cc2NC(=O)c2cn(C)c(=O)cc2C(F)F)C[C@H](C)N1C" is ___
Reply: 8.16

Query: Fill in: pKd of "CC(=O)Nc1ncc(-c2cc(NC(=O)c3c[nH]c(=O)cc3C(F)(F)F)c(N3C[C@@H](C)N(C)[C@@H](C)C3)cc2F)cn1" is ___
Reply: 9.08

Query: Fill in: pKd of "C[C@@H]1CN(c2cc(F)c(-c3cnc(N4CCOCC4)nc3)cc2NC(=O)c2cc(F)c(F)c(F)c2)C[C@H](C)N1C" is ___
Reply: 7.67

Query: Fill in: pKd of "C[C@@H]1CN(c2cc(F)c(N3CCN(c4ncccn4)CC3)cc2NC(=O)c2c[nH]c(=O)cc2C(F)(F)F)C[C@H](C)N1C" is ___
Reply: 7.88

Query: Fill in: pKd of "C[C@@H]1CN(c2cc(F)c(C3=CCN(C(=O)N4CCN(C)CC4)CC3)cc2NC(=O)c2c[nH]c(=O)cc2C(F)(F)F)C[C@H](C)N1C" is ___
Reply: 8.86

Query: Fill in: pKd of "CN(C)C1CCN(c2cc(F)c(-c3cnc(N4CCOCC4)nc3)cc2NC(=O)c2c[nH]c(=O)cc2C(F)(F)F)CC1" is ___
Reply: 7.18

Query: Fill in: pKd of "COc1ccc(CC(=O)N2CC=C(c3cc(NC(=O)c4c[nH]c(=O)cc4C(F)(F)F)c(N4C[C@@H](C)N(C)[C@@H](C)C4)cc3F)CC2)cc1" is ___
Reply: 9.24

Query: Fill in: pKd of "C[C@@H]1CN(c2cc(F)c(-c3ccc4c(c3)OCCCO4)cc2NC(=O)c2c[nH]c(=O)cc2C(F)(F)F)C[C@H](C)N1C" is ___
Reply: 9.65

Query: Fill in: pKd of "C[C@@H]1CN(c2cc(F)c(C3=CCCN(c4ncccn4)C3)cc2NC(=O)c2c[nH]c(=O)cc2C(F)(F)F)C[C@H](C)N1C" is ___
Reply: 10.02

Query: Fill in: pKd of "C[C@@H]1CN(c2cc(F)c(-c3cnc(N4CCOCC4)nc3)cc2NC(=O)c2c(Cl)cccc2Cl)C[C@H](C)N1C" is ___
Reply: 8.23

Query: Fill in: pKd of CNC1CCN(c2cc(F)c(-c3cnc(N4CCOCC4)nc3)cc2NC(=O)c2c[nH]c(=O)cc2C(F)(F)F)C1 (stereo not shown) is ___
Reply: 7.83

Query: Fill in: pKd of "C[C@@H]1CN(c2cc(F)c(C3=CCN(Cc4nccs4)CC3)cc2NC(=O)c2c[nH]c(=O)cc2C(F)(F)F)C[C@H](C)N1C" is ___
Reply: 8.55

Query: Fill in: pKd of "COc1cc(Cl)cc(C(=O)Nc2cc(-c3cnc(N4CCOCC4)nc3)c(F)cc2N2C[C@@H](C)N(C)[C@@H](C)C2)c1" is ___
Reply: 7.55
